Hey, just so you know, these numbers are from ChEMBL document CHEMBL3588816.

biological target: UniProtKB Q15391; test: Agonist activity at recombinant human P2Y14 receptor expressed in African green monkey COS7 cells co-transfected with Galphaqi assessed as stimulation of phospholipase Cbeta at 10 uM; type: cell-based; details: COS-7
Sequence (Q15391 whole entry): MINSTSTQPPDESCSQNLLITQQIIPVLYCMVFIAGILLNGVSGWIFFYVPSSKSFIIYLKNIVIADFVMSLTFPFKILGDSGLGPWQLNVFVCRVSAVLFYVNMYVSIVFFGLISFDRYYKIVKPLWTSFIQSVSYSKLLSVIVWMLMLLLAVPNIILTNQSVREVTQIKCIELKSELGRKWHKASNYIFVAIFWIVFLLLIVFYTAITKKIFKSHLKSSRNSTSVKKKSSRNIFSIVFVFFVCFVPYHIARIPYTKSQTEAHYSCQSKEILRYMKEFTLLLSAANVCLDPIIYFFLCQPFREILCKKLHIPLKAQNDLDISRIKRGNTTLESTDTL
Active and inactive are the calls of the source. The calls are words filed in the database; no cut-off is given here.
readoutType: Activity

Solved cases (5 shown):
| itemSmiles | readoutType | recordedValue |
| --- | --- | --- |
| [N-]=[N+]=Nc1cn([C@@H]2O[C@H](COP(=O)(O)OP(=O)(O)O[C@H]3O[C@H](CO)[C@@H](O)[C@H](O)[C@H]3O)[C@@H](O)[C@H]2O)c(=O)[nH]c1=O | Activity | inactive |
| N[C@@H]1[C@H](O)[C@@H](COP(=O)(O)OP(=O)(O)O[C@H]2O[C@H](CO)[C@@H](O)[C@H](O)[C@H]2O)O[C@H]1n1ccc(=O)[nH]c1=O | Activity | inactive |
| O=c1ccn([C@]23C[C@H]2[C@H](COP(=O)(O)OP(=O)(O)O[C@H]2O[C@H](CO)[C@@H](O)[C@H](O)[C@H]2O)[C@@H](O)[C@H]3O)c(=O)[nH]1 | Activity | inactive |
| Nc1cn([C@@H]2O[C@H](COP(=O)(O)OP(=O)(O)O[C@H]3O[C@H](CO)[C@@H](O)[C@H](O)[C@H]3O)[C@@H](O)[C@H]2O)c(=O)[nH]c1=O | Activity | inactive |
| O=c1ccn([C@H]2[C@H](O)[C@H](O)[C@]3(COP(=O)(O)OP(=O)(O)O[C@H]4O[C@H](CO)[C@@H](O)[C@H](O)[C@H]4O)C[C@H]23)c(=O)[nH]1 | Activity | inactive |

`[N-]=[N+]=N[C@@H]1[C@H](O)[C@@H](COP(=O)(O)OP(=O)(O)O[C@H]2O[C@H](CO)[C@@H](O)[C@H](O)[C@H]2O)O[C@H]1n1ccc(=O)[nH]c1=O` has a reported Activity of inactive

`O=c1[nH]c(=O)n([C@@H]2O[C@H](COP(=O)(O)OP(=O)(O)O[C@H]3O[C@H](CO)[C@@H](O)[C@H](O)[C@H]3O)[C@@H](O)[C@H]2O)cc1I` has a reported Activity of inactive
